Tested on: WEEV replicon
Assay Details: microbe, parasite or virus in culture
Type: cell-based, Western equine encephalitis virus
Run Conditions: Western equine encephalitis virus; read-out: Activity (% control LUC) 10 μM
The recorded activity at 10 µM of each item maps onto one of these classes: lower band (below 60%), central band (60% to below 70%), upper band (70% or more)

Observe how each entry below is paired with its result.
Cc1ccc(CCNC(=O)C2CCN(C(=O)c3cc4ccccc4n3Cc3ccc(Cl)cc3)CC2)cc1    lower band
O=C(NCc1ccccc1)C1CCN(C(=O)c2cc3ccccc3n2Cc2ccc(Cl)cc2)CC1    upper band

Given O=C(NCc1ccncc1)C1CCN(C(=O)c2cc3ccccc3n2Cc2ccc(Cl)cc2)CC1 , name the class its activity at 10 µM places it in.
lower band

Given O=C(c1cc2ccccc2n1Cc1ccc(F)cc1)N1CCC(C(=O)N2CCCCC2)CC1 , name the class its activity at 10 µM places it in.
central band

Given O=C(c1cc2ccccc2n1Cc1ccc(Cl)cc1)N1CCC(C(=O)N2CCOCC2)CC1 , name the class its activity at 10 µM places it in.
lower band

Given O=C(c1cc2ccccc2n1Cc1ccc(Cl)cc1)N1CCC(C(=O)N2CCCC2)CC1 , name the class its activity at 10 µM places it in.
central band
